# System: Tyrosinase (Agaricus bisporus)
# Sequence (O42713 whole entry): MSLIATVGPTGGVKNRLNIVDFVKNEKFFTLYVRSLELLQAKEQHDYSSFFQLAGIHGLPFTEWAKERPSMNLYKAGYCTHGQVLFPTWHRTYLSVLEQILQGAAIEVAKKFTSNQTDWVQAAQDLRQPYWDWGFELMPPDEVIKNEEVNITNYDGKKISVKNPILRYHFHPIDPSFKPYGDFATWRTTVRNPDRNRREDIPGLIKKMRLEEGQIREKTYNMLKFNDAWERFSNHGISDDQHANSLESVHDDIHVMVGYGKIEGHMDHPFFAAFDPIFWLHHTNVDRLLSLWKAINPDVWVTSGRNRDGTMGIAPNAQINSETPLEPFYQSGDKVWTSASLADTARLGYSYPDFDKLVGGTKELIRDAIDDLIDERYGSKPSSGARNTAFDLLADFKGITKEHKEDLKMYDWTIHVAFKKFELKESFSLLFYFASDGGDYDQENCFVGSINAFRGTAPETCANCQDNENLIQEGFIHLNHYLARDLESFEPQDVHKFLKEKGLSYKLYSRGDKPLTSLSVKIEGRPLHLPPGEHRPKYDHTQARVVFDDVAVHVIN
pIC50: −log10 of the molar value.
Outcome: class 1 for pIC50 of at least 3; class 0 for anything lower.

For orientation, consider the following solved cases.
CC(=O)OC[C@H]1O[C@@H](Oc2ccccc2C=O)[C@H](OC(C)=O)[C@@H](OC(C)=O)[C@@H]1OC(C)=O    class 0
O=C1NC(=O)C(=Cc2ccc(O[C@@H]3O[C@H](CO)[C@@H](O)[C@@H](O)[C@H]3O)cc2)C(=O)N1    class 0
CC(=O)OC[C@H]1O[C@@H](Oc2cccc(C=C3C(=O)NC(=O)NC3=O)c2)[C@H](OC(C)=O)[C@@H](OC(C)=O)[C@@H]1OC(C)=O    class 0
CC(=O)OC[C@H]1O[C@@H](Oc2ccc(C=O)cc2O)[C@H](OC(C)=O)[C@@H](OC(C)=O)[C@@H]1OC(C)=O    class 1
CC(=O)OC[C@H]1O[C@@H](Oc2ccc(C=C3C(=O)NC(=O)NC3=O)cc2O)[C@H](OC(C)=O)[C@@H](OC(C)=O)[C@@H]1OC(C)=O    class 1

For the next question, use this compound.
Task: Has "CC(=O)OC[C@H]1O[C@@H](Oc2ccc(C=C3C(=O)NC(=O)NC3=O)cc2)[C@H](OC(C)=O)[C@H](OC(C)=O)[C@@H]1OC(C)=O" a recorded pIC50 greater than or equal to 3?
Output: class 0

----------
The molecules listed here are annotated with their IC50.
# System: Tyrosinase (Agaricus bisporus, UniProt O42713)
# Sequence (O42713 whole entry): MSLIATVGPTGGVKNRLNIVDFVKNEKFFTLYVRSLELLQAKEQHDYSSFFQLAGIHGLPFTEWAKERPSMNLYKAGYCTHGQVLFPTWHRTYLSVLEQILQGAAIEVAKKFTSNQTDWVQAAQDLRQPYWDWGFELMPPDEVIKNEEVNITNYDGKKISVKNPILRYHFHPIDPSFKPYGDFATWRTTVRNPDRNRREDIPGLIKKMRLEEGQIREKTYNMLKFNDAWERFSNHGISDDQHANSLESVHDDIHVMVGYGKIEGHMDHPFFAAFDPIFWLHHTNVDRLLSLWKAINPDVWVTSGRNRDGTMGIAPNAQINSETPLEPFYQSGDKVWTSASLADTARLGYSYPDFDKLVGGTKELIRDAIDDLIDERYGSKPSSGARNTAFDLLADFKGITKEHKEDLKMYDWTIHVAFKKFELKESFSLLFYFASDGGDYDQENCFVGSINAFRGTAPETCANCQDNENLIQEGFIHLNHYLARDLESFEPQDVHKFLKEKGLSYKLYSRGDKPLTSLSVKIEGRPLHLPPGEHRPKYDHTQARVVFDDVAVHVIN
The reply should contain only the number, in µM.

For orientation, consider the following solved cases.
CC(=O)OC[C@H]1O[C@@H](Oc2ccc(C=C3C(=O)NC(=S)NC3=O)cc2)[C@H](OC(C)=O)[C@@H](OC(C)=O)[C@@H]1OC(C)=O    230
CC(=O)OC[C@H]1O[C@@H](Oc2ccc(C=C3C(=O)NC(=S)NC3=O)c(O)c2)[C@H](OC(C)=O)[C@@H](OC(C)=O)[C@@H]1OC(C)=O    280

Task: # return IC50 of "CC(=O)OC[C@H]1O[C@@H](Oc2ccccc2C=C2C(=O)NC(=S)NC2=O)[C@H](OC(C)=O)[C@@H](OC(C)=O)[C@@H]1OC(C)=O" (system: Tyrosinase (Agaricus bisporus, UniProt O42713))
Output: 430
